Experiment: XTT cytotoxicity assay according to ISO 10993
Settings: mouse

compound: CCCCCCCCCCCCOS(=O)(=O)[O-].[Na+] [SDS, Sodium dodecyl sulfate]
viability at 25 μg/mL [%]: 91.7

* * *

Assay: XTT cytotoxicity assay according to ISO 10993
Conditions: mouse
Text: A larger scale batch (100 Liter) of Formulation E was further evaluated in more detail with an XTT test according to ISO 10993, published by the International Organization for Standardization: “Biological Evaluation of Medical Devices”, Part 1: “Evaluation and testing within a risk management process”, 2018, Part 5: “Tests for in vitro cytotoxicity”, 2009 using a valuated method from the ICCR-Roßdorf GmbH (Germany) and a Xenometrix test kit. […]

molecule: CCCCCCCCCCCCOS(=O)(=O)[O-].[Na+] [SDS, Sodium dodecyl sulfate]
unit.descriptor: %
viability at 50 μg/mL: 85
